Tested on: Mycobacterium tuberculosis variant bovis BCG
assay_procedure: microbe, parasite or virus in culture
Assay type: functional
assay_metric: MIC90
Your answer should be a number followed by the unit of measure.

Query: Reported MIC90, compound COC(=O)COc1ccc(CCn2nnc(-c3ccc(C(F)(F)F)cc3)n2)cc1 : ____
Result: 7.6 µM

Query: Would you mind telling me what MIC90 value was observed for CNc1nc(SCC(=O)N(C)Cc2ccc(Cl)s2)nc2ccccc12 ?
Result: 8.9 µM

Query: Give its MIC90 value. Item: O=C(Nc1ccc(C(=O)Nc2cccc(C3=NCCN3)c2)cc1)Nc1ccc(C2=NCCN2)cc1
Result: 4.6 µM

Query: Requested read-out: MIC90. Entry: CCc1ccc([C@@H]2C[C@H](C(F)(F)F)n3ncc(C(=O)NCc4ccc(OC)cc4)c3N2)cc1
Result: 2.7 µM

Query: Endpoint output: MIC90 of CCc1nc2ccccc2n1CC(O)COc1cc(C)ccc1Cl (stereo not given) . Value?
Result: 9.7 µM

Query: If you can, please state the reported MIC90 value of CCn1c(=O)c(=O)[nH]c2cc(C(=O)Nc3ccccc3Nc3ccc(OC)cc3)ccc21 .
Result: 0.9 µM

Query: Quick check: MIC90 of Fc1ccc(F)c(-c2noc(CC3CCN(Cc4ccsc4)C3)n2)c1 (stereo not given) ?
Result: 3.5 µM

Query: Which value of MIC90 has been reported for Cc1cc(CN2CCC3(CC2)OCCc2sccc23)oc1C in the records?
Result: 2.1 µM

Query: Field request: MIC90 | item: Cn1cc(-c2noc(/C=C3/CCN4CCCC[C@@H]4C3)n2)c2ccccc21
Result: 7.3 µM

Query: Would you mind telling me what MIC90 value was observed for O=C(c1cc2c(s1)CCC2)N1CCN(Cc2ccc3c(c2)OCO3)CC1 ?
Result: 9.2 µM

====

System: Mycobacterium tuberculosis variant bovis BCG
assay_procedure: microbe, parasite or virus in culture
Type: functional
What MIC90 was measured for each of the following?
Express your answer in µM, writing the number without its unit.

Query: Item NC(=O)c1cccc(-c2ccc(OCCCN3CC[C@@H](OCc4ccccc4)C3)cc2)c1 has what recorded MIC90?
Result: 7.5

Query: Dear colleague, I am looking for the recorded MIC90 of the following molecule: COc1ccc(OC)c(S(=O)(=O)Nc2ccc(Nc3ccccc3)cc2OC)c1
Result: 8.8

Query: Can you look up the measured MIC90 of O=C(NNC(=O)N1CCN(C(c2ccccc2)c2ccc(Cl)cc2)CC1)c1ccc([N+](=O)[O-])o1 (stereo unspecified) for me?
Result: 1.1

Query: So what does the record say about MIC90 for O=C(Nc1ccc(-c2nc3ccccc3o2)cc1)c1cccnc1 ?
Result: 4.5

Query: What does the record list as MIC90 for CCOC(=O)c1csc(-c2ccccc2NC(=O)OCC2CCNCC2)n1 ?
Result: 9.3

Query: Please look up its MIC90: C[C@@H]1CN(c2ncnc3c2nc(C2CC2)n3C2CCNC2)C[C@H](C)O1 (stereo partly specified)
Result: 7.5

Query: What value of measured MIC90 is listed for O=C(Cc1ccc(Cl)cc1)Nc1nc(-c2ccccn2)cs1 ?
Result: 4.3

Query: Data request, read-out MIC90, for O=C(Nc1nnc(-c2ccccc2)o1)c1ccc2c(c1)CCCC2
Result: 4.1

Query: Can you look up the measured MIC90 of CSc1ncc(C(=O)Nc2nc(-c3ccc(Cl)cc3)cs2)cn1 for me?
Result: 3.3

Query: Item c1ccc(-c2nc(N3CCCNCC3)c3ccccc3n2)cc1 has what recorded MIC90?
Result: 2.7

Query: // MIC90 lookup, key: CCc1c(C)nc(-n2nc(C)cc2NC(=O)c2ccc(OC)cc2OC)[nH]c1=O
Result: 1.2

Numbers sourced from ChEMBL document CHEMBL2095176.
